Reference source for all entries: patent US20210246157A1

# Test system: PANC-1
# Method: Cytotoxicity test (MTT, 72 h)
# Test Parameters: Homo sapiens, PANC-1, 72 h, read-out: 50% Inhibiting Concentration value (IC50)
pIC50: −log10 of the molar value.
I would appreciate it if you labelled entries Yes when pIC50 is 5 or higher, otherwise No.

INSERT INTO measurements (structure_smiles, category_label) VALUES
  ('CCc1c2c(nc3ccc(OC(=O)OCCOCc4cn(CCO[C@H]5O[C@@H](CO)[C@H](O)[C@@H](O)[C@@H]5O)nn4)cc13)-c1cc3c(c(=O)n1C2)COC(=O)[C@]3(O)CC', 'Yes'),
  ('CCc1c2c(nc3ccc(OC(=O)OCCOCCOCc4cn([C@H]5O[C@@H](CO)[C@H](O)[C@@H](O)[C@@H]5O)nn4)cc13)-c1cc3c(c(=O)n1C2)COC(=O)[C@]3(O)CC', 'Yes'),
  ('CCc1c2c(nc3ccc(OC(=O)OCCOCCOCc4cn(CCO[C@H]5O[C@@H](CO)[C@H](O)[C@@H](O)[C@@H]5O)nn4)cc13)-c1cc3c(c(=O)n1C2)COC(=O)[C@]3(O)CC', 'No');

Then there is this compound:
# input Entry CCc1c2c(nc3ccc(OC(=O)NCCOCCOCc4cn([C@H]5O[C@@H](CO)[C@H](O)[C@@H](O)[C@@H]5O)nn4)cc13)-c1cc3c(c(=O)n1C2)COC(=O)[C@]3(O)CC : is its pIC50 no less than 5?
# output Yes
